tested on: Acinetobacter baumannii ATCC17961; assay: Antimicrobial susceptibility testing: 90% growth inhibitory concentration (IC90) determination in Iso-Sensitest broth, OD600 growth; assay type: cell-based; details: Acinetobacter baumannii, ATCC17961, 16 h, strain ATCC 17961, OD600 growth over 16 h, read-out: A. baumannii ATCC 17961 IC90
Lab note: cut-off is 400 nM. Strictly less in IC90 is Y. Exactly 400 nM or more is N.

>>> assigned_category("Cc1cc(Nc2nccn3c(-c4cn(CC#N)nc4C(F)(F)F)cnc23)ccc1C(=O)NCCOCCN")
"N"
>>> assigned_category("CCc1cc(Nc2nccn3c(-c4c[nH]nc4C(F)F)cnc23)ccc1C(=O)NCCOCCN")
"N"
>>> assigned_category("CCc1cc(Nc2nccn3c(-c4cn(CCF)nc4C(F)(F)F)cnc23)ccc1C(=O)NCCOCCN1CCCC1")
"Y"
>>> assigned_category("C#CCNC(=O)c1c(C)cc(Nc2nccn3c(-c4cn(CC(F)F)nc4C(F)(F)F)cnc23)cc1F")
"Y"
>>> assigned_category("O=C(c1ccc(Nc2nccn3c(-c4c[nH]nc4C(F)(F)F)cnc23)cc1Cl)N1CC2(CNC2)C1")
"N"
>>> assigned_category("C#CCn1cc(-c2cnc3c(Nc4ccc(C(=O)NCCOC[C@H](C)N)c(CC)c4)nccn23)c(C(F)(F)F)n1")
"Y"
>>> assigned_category("O=C(CNC(=O)c1ccc(Nc2nccn3c(-c4c[nH]nc4C(F)(F)F)cnc23)cc1Cl)N[C@@H]1CCNC1")
"N"
>>> assigned_category("CCc1cc(Nc2nccn3c(-c4cn(CC(F)F)nc4C(F)F)cnc23)ccc1C(=O)N1CCN(C(=O)[C@@H]2C[C@@H](O)CN2)CC1")
"N"
>>> assigned_category("CCNC(=O)c1ccc(Nc2nccn3c(-c4cn(CCF)nc4C(F)(F)F)cnc23)cc1CC")
"Y"
>>> assigned_category("O=C(NC1CC(NC(=O)[C@@H]2C[C@@H](O)CN2)C1)c1ccc(Nc2nccn3c(-c4c[nH]nc4C(F)(F)F)cnc23)cc1Cl (some centres unmarked)")
"Y"
>>> assigned_category("N#CCn1cc(-c2cnc3c(Nc4ccc(C(=O)N5CC(NC(=O)N[C@@H]6CCNC6)C5)c(Cl)c4)nccn23)c(C(F)(F)F)n1")
"N"
>>> assigned_category("O=C(N[C@H]1CCNC1)c1ccc(Nc2nccn3c(-c4c[nH]nc4C(F)(F)F)cnc23)cc1Cl")
"N"
>>> assigned_category("N#CCn1cc(-c2cnc3c(Nc4ccc(C(=O)NCCNCC(=O)NC5CNC5)c(Cl)c4)nccn23)c(C(F)(F)F)n1")
"Y"

---

tested on: Acinetobacter baumannii ATCC17961; experiment: Antimicrobial susceptibility testing: 90% growth inhibitory concentration (IC90) determination in Iso-Sensitest broth, OD600 growth; format: cell-based; settings: Acinetobacter baumannii, ATCC17961, 16 h, strain ATCC 17961, OD600 growth over 16 h, read-out: A. baumannii ATCC 17961 IC90
MEASURE: IC90 (nM)

>>> readout_number("CCc1cc(Nc2nccn3c(-c4cn(CC(F)F)nc4C(F)(F)F)cnc23)ccc1C(=O)NCC(=O)NCC1CCNC1 (stereo not drawn)")
235
>>> readout_number("Cc1cc(Nc2nccn3c(-c4cn(CC#N)nc4C(F)(F)F)cnc23)cc(F)c1C(=O)N1CCN(C(=O)[C@H]2[C@@H]3CNC[C@@H]32)CC1")
316
>>> readout_number("CCc1cc(Nc2nccn3c(-c4c[nH]nc4C(F)(F)F)cnc23)ccc1C(=O)NCCCNC(=O)[C@@H](C)NC(=O)C(F)(F)F")
608
>>> readout_number("C#CCNC(=O)c1c(C)cc(Nc2nccn3c(-c4cn(Cc5nc(CC6CC6)no5)nc4C(F)(F)F)cnc23)cc1F")
327
>>> readout_number("C#CCn1cc(-c2cnc3c(Nc4ccc(C(=O)N5CCN(C(=O)CN)CC5)c(CC)c4)nccn23)c(C(F)F)n1")
1930
>>> readout_number("O=C(c1ccc(Nc2nccn3c(-c4c[nH]nc4C(F)(F)F)cnc23)cc1Cl)N1CCN(C(=O)[C@H]2[C@@H]3CNC[C@@H]32)CC1")
140

From: patent US20230203043A1
